Molecular target: T1, HA peptide (XAKLDEESILKQK-FITC, X = H)
T1 construct: also called peptide with N-terminal histidine
T1 peptide: HAKLDEESILKQK(FITC)
Experiment: fluorescence polarization titration, 20 C
No end group written: not given here. *: point of attachment. FITC = O=C1OC2(c3ccc(O)cc3Oc3cc(O)ccc32)c2ccc(NC(=S)*)cc21
Property label: pKd
Recall that pKd is obtained by taking minus log10 of the concentration measured in molar.

PS1107 (designed binder, Variant of PS621) MHSKFSHAGRICGAKFKVGEPIYRCKECSFDDTCVLCVNCFNPKDHTGHHVYTTICREFNNGICDCGDKEAWNHTLFCKAEEG: 5.42
PS1104 (designed binder, PS621 variant) MHSKFSHAGRICGAKFKVGEPIYRCKECSFDDTCVLCVNCFNPKDHRGHHVYTTICTEFNNGICDCGDKEAWNHTLFCKAEEG: 5.55
PS621 (other, tag of the assay construct not specified; also called UBR protein from Kluyveromyces marxianus) MHSKFSHAGRICGAKFKVGEPIYRCKECSFDDTCVLCVNCFNPKDHTGHHVYTTICTEFNNGICDCGDKEAWNHTLFCKAEEG: 5.17
PS1121 (designed binder, PS621 variant) MHSKFSHAGRICGAKFKVGEPIYRCKECSFDDTCVLCVNCFNPKDHKGHHVYTTICTEFNNGICDCGDKEAWNHTLFCKAEEG: 5.46

Now consider the entry below.
Quick one: pKd for PS1106 (designed binder, PS621 variant) MHSKFSHAGRICGAKFKVGEPIYRCKECSFDDTCVLCVNCFNPKDHTGHHVYVTICTEFNNGICDCGDKEAWNHTLFCKAEEG ? 5.46
